biological target: human recombinant ETB receptors (Homo sapiens, UniProt P24530); construct: expressed in transfected cells; host or cells: CHO cells (microsomal membranes); assay: Inhibition of endothelin binding to membranes from CHO cells carrying human ET receptors (ETB)
Sequence (P24530 27-442): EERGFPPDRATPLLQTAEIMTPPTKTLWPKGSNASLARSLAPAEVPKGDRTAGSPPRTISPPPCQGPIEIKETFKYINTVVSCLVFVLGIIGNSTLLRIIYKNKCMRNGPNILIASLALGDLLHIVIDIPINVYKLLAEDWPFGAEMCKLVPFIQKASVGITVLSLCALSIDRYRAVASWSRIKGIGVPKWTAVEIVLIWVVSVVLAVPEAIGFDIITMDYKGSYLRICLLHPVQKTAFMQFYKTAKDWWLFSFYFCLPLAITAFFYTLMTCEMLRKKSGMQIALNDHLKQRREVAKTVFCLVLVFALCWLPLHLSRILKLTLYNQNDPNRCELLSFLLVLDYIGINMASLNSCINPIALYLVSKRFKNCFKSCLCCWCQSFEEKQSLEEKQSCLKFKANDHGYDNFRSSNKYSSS
measured_endpoint: pIC50
Hey, just a heads up that pIC50 is the negative log base 10 of the concentration in molar.

>  <structure>
CCCCS(=O)(=O)NCCOc1nc(-c2ncccn2)nc(NS(=O)(=O)c2ccc(C(C)(C)C)cc2)c1Oc1ccccc1OC

>  <pIC50>
6.93

$$$$
>  <structure>
COc1ccccc1Oc1c(NS(=O)(=O)c2ccc(C(C)(C)C)cc2)nc(SC)nc1OCCNS(=O)(=O)c1ccc(C)cc1

>  <pIC50>
6.22

$$$$
>  <structure>
COc1ccccc1Oc1c(NS(=O)(=O)c2ccc(C)cn2)nc(N2CCOCC2)nc1OCCNS(=O)(=O)c1ccccc1

>  <pIC50>
6.68

$$$$

# query: pIC50 of entry "CCS(=O)(=O)NCCOc1nc(-c2ccncc2)nc(NS(=O)(=O)c2ccc(C(C)C)cn2)c1Oc1ccccc1OC" 6.27
